Entry source: ChEMBL document CHEMBL3045645

Test system: Colletotrichum falcatum
Test: Antifungal activity against Glomerella tucumanensis assessed as mycelial growth inhibition at 10 ppm at 28 +/-2 degC after 7 days by food poison technique
Format: functional
Conditions: 168 h, read-out: GI
Please note: 1 (yes) applies when inhibition of growth at 10 ppm is 40% or greater, and 0 (no) applies otherwise.

Field: example entries. Status: answers known.
CCOP(=S)(OCC)O/C(=N\N=C1/C(=O)Nc2ccccc21)c1ccc(Cl)cc1 | 1 (yes)
CCOP(=O)(OCC)O/C(=N\N=C1/C(=O)Nc2ccccc21)c1ccc([N+](=O)[O-])cc1 | 0 (no)
CCOP(=O)(OCC)O/C(COc1ccccc1)=N\N=C1/C(=O)Nc2ccccc21 | 1 (yes)

Could you now consider this next compound?
(Q) Kindly determine if inhibition of growth at 10 ppm recorded for CCOP(=S)(OCC)O/C(=N\N=C1/C(=O)Nc2ccccc21)c1ccccc1P(=S)(OCC)OCC is above or exactly 40%.
(A) 1 (yes)

====

Test system: Colletotrichum falcatum
Assay: Antifungal activity against Glomerella tucumanensis assessed as mycelial growth inhibition at 100 ppm at 28 +/-2 degC after 7 days by food poison technique
Assay type: functional
Conditions: 168 h, read-out: GI
Measurement Label: inhibition of growth at 100 ppm (%)
Answer with a number only, understood to be in %.

Before answering, review these 5 worked examples.
CCOP(=O)(OCC)O/C(COc1ccccc1)=N\N=C1/C(=O)Nc2ccccc21 | 61.6
CCOP(=O)(OCC)O/C(COc1ccc([N+](=O)[O-])cc1)=N\N=C1/C(=O)Nc2ccccc21 | 48.6
CCOP(=S)(OCC)O/C(COc1ccccc1P(=S)(OCC)OCC)=N\N=C1/C(=O)Nc2ccccc21 | 81.2
CCOP(=S)(OCC)O/C(COc1ccc(Cl)cc1)=N\N=C1/C(=O)Nc2ccccc21 | 90.2
CCOP(=O)(OCC)O/C(COc1ccccc1P(=O)(OCC)OCC)=N\N=C1/C(=O)Nc2ccccc21 | 67.4

(Q) inhibition of growth at 100 ppm for CCOP(=S)(OCC)O/C(COc1ccc([N+](=O)[O-])cc1)=N\N=C1/C(=O)Nc2ccccc21 ?
(A) 56.2

====

Overview of recorded inhibition of growth at 100 ppm for various compounds
System: Fusarium oxysporum
Assay: Antifungal activity against Fusarium oxysporum assessed as mycelial growth inhibition at 100 ppm at 28 +/-2 degC after 7 days by food poison technique
Assay type: functional
Conditions: 168 h, read-out: GI

CCOP(=S)(OCC)O/C(COc1ccccc1)=N\N=C1/C(=O)Nc2ccccc21 | 69.1%

(Q) Item CCOP(=S)(OCC)O/C(=N\N=C1/C(=O)Nc2ccccc21)c1ccccc1P(=S)(OCC)OCC with Fusarium oxysporum - inhibition of growth at 100 ppm?
(A) 66.5%

(Q) Item CCOP(=O)(OCC)O/C(COc1ccccc1)=N\N=C1/C(=O)Nc2ccccc21 with Fusarium oxysporum - inhibition of growth at 100 ppm?
(A) 59.2%

(Q) Item CCOP(=O)(OCC)O/C(=N\N=C1/C(=O)Nc2ccccc21)c1ccccc1P(=O)(OCC)OCC with Fusarium oxysporum - inhibition of growth at 100 ppm?
(A) 56.2%

(Q) Item CCOP(=O)(OCC)O/C(COc1ccccc1P(=O)(OCC)OCC)=N\N=C1/C(=O)Nc2ccccc21 with Fusarium oxysporum - inhibition of growth at 100 ppm?
(A) 64%

(Q) Item CCOP(=O)(OCC)O/C(=N\N=C1/C(=O)Nc2ccccc21)c1ccc([N+](=O)[O-])cc1 with Fusarium oxysporum - inhibition of growth at 100 ppm?
(A) 39.6%

====

Tested on: Colletotrichum falcatum
Assay: Antifungal activity against Glomerella tucumanensis assessed as mycelial growth inhibition at 100 ppm at 28 +/-2 degC after 7 days by food poison technique
Format: functional
Settings: 168 h, read-out: GI
// classify(record): look up inhibition of growth at 100 ppm in ranges bottom end: < 60%; midrange: ≥ 60% and < 70%; top end: ≥ 70%

Field: example entries. Status: answers known.
CCOP(=O)(OCC)O/C(=N\N=C1/C(=O)Nc2ccccc21)c1ccc([N+](=O)[O-])cc1 | bottom end
CCOP(=O)(OCC)O/C(=N\N=C1/C(=O)Nc2ccccc21)c1ccc(Cl)cc1 | midrange

(Q) Classify this molecule: CCOP(=S)(OCC)O/C(=N\N=C1/C(=O)Nc2ccccc21)c1ccccc1P(=S)(OCC)OCC
(A) midrange

(Q) Classify this molecule: CCOP(=O)(OCC)O/C(=N\N=C1/C(=O)Nc2ccccc21)c1ccc(OP(=O)(OCC)OCC)cc1
(A) midrange

(Q) Classify this molecule: CCOP(=O)(OCC)O/C(=N\N=C1/C(=O)Nc2ccccc21)c1ccccc1
(A) bottom end

====

Tested on: Fusarium oxysporum
Assay: Antifungal activity against Fusarium oxysporum assessed as mycelial growth inhibition at 100 ppm at 28 +/-2 degC after 7 days by food poison technique
Format: functional
Details: 168 h, read-out: GI
Please note: yes (1) applies when inhibition of growth at 100 ppm is 50% or greater, and no (0) applies otherwise.

Field: example entries. Status: answers known.
CCOP(=S)(OCC)O/C(=N\N=C1/C(=O)Nc2ccccc21)c1ccc([N+](=O)[O-])cc1 | no (0)
CCOP(=S)(OCC)O/C(COc1ccc(Cl)cc1)=N\N=C1/C(=O)Nc2ccccc21 | yes (1)
CCOP(=S)(OCC)O/C(COc1ccc([N+](=O)[O-])cc1)=N\N=C1/C(=O)Nc2ccccc21 | yes (1)

(Q) Kindly determine if inhibition of growth at 100 ppm recorded for CCOP(=O)(OCC)O/C(COc1ccc([N+](=O)[O-])cc1)=N\N=C1/C(=O)Nc2ccccc21 is above or exactly 50%.
(A) no (0)

(Q) Kindly determine if inhibition of growth at 100 ppm recorded for CCOP(=O)(OCC)O/C(COc1ccc(Cl)cc1)=N\N=C1/C(=O)Nc2ccccc21 is above or exactly 50%.
(A) yes (1)

====

Overview of recorded inhibition of growth at 100 ppm for various compounds
Tested on: Colletotrichum falcatum
Assay: Antifungal activity against Glomerella tucumanensis assessed as mycelial growth inhibition at 100 ppm at 28 +/-2 degC after 7 days by food poison technique
Format: functional
Conditions: 168 h, read-out: GI
Answer with a number only, understood to be in %.

CCOP(=O)(OCC)O/C(COc1ccc(OP(=O)(OCC)OCC)cc1)=N\N=C1/C(=O)Nc2ccccc21 | 70.2
CCOP(=S)(OCC)O/C(=N\N=C1/C(=O)Nc2ccccc21)c1ccc(OP(=S)(OCC)OCC)cc1 | 68.2
CCOP(=O)(OCC)O/C(=N\N=C1/C(=O)Nc2ccccc21)c1ccccc1P(=O)(OCC)OCC | 59.9
CCOP(=S)(OCC)O/C(=N\N=C1/C(=O)Nc2ccccc21)c1ccc([N+](=O)[O-])cc1 | 46.2
CCOP(=O)(OCC)O/C(COc1ccc(Cl)cc1)=N\N=C1/C(=O)Nc2ccccc21 | 71.6

(Q) inhibition of growth at 100 ppm for CCOP(=S)(OCC)O/C(=N\N=C1/C(=O)Nc2ccccc21)c1ccc(Cl)cc1 ?
(A) 72.4

(Q) inhibition of growth at 100 ppm for CCOP(=S)(OCC)O/C(COc1ccc(OP(=S)(OCC)OCC)cc1)=N\N=C1/C(=O)Nc2ccccc21 ?
(A) 86.2

(Q) inhibition of growth at 100 ppm for CCOP(=S)(OCC)O/C(COc1ccccc1)=N\N=C1/C(=O)Nc2ccccc21 ?
(A) 67

(Q) inhibition of growth at 100 ppm for CCOP(=S)(OCC)O/C(=N\N=C1/C(=O)Nc2ccccc21)c1ccccc1 ?
(A) 65.1
